Would you mind telling me the reported HDAC 2 activity, % of water-treated controls of each entry?
# SYSTEM NAME: HDAC2 (Homo sapiens)
# Sequence (Q92769 whole entry): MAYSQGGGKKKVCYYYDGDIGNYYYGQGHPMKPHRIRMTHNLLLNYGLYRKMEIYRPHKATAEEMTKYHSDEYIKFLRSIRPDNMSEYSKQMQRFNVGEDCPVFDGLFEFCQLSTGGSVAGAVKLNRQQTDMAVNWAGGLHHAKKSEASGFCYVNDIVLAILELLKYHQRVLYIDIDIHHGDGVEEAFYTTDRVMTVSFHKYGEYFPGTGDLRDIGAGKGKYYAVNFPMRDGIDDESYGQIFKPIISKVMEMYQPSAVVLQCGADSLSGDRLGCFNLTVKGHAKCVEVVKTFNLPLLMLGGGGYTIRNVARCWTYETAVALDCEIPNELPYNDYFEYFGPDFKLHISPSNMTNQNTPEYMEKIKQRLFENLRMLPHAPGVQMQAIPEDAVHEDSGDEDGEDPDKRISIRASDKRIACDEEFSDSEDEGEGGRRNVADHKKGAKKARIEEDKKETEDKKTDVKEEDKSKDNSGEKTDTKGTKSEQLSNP
# ASSAY CONTEXT: 100 ug/ml
Give bare numbers, in %.

List the reported HDAC 2 activity, % of water-treated controls of each molecule below.
1. CCCC(=O)NCCCC[C@H](NC(=O)CCC)C(=O)[O-].CCCC(=O)NCCCC[C@H](NC(=O)CCC)C(=O)[O-].[Zn+2] [Zn di-(di-n-butyryl lysinate), Zinc di-(di-n-butyryl lysinate)]
2. CCCC(=O)[O-].[Na+] [Sodium butyrate, reference compound]
3. CCCC(=O)N[C@@H](CC(C)C)C(=O)[O-].CCCC(=O)N[C@@H](CC(C)C)C(=O)[O-].[Zn+2] [Zn di-(n-butyryl leucinate), Zinc di-(n-butyryl leucinate)]

17
93
31

Short answer please: HDAC 2 activity, % of water-treated controls, HDAC2 (Homo sapiens), entry CCCC(=O)NCCCCC(NC(=O)CCC)C(=O)[O-].CCCC(=O)NCCCCC(NC(=O)CCC)C(=O)[O-].[Ca+2] (stereo not shown) [Ca di-(di-n-butyryl lysinate), calcium di-(di-n-butyryl lysinate)]
97

Data origin, for the record: patent US20260041620A1
